Source: ChEMBL document CHEMBL1255225

# protocol_description: Cytotoxicity against HuH7 cells
# Format: cell-based, Huh-7
# measurement_context: human
Quick reference: CC50 of the listed items.

structure_smiles_string: O=c1[nH]c(=O)n([C@H]2C[C@@H](O)[C@@H](CO)O2)cc1Cl
CC50: > 763 µM
//
structure_smiles_string: O=c1ccn([C@@H]2O[C@H](CO)[C@@H](F)[C@@H]2O)c(=O)[nH]1
CC50: > 813 µM
//
structure_smiles_string: Cc1cn([C@@H]2O[C@H](CO)[C@@H](F)[C@@H]2O)c(=O)[nH]c1=O
CC50: > 769 µM
//
structure_smiles_string: Cc1cn([C@@H]2O[C@H](CO)[C@H](O)[C@H]2F)c(=O)[nH]c1=O
CC50: > 769 µM
//
structure_smiles_string: Cc1cn([C@H]2C[C@@H](O)[C@@H](CO)O2)c(=O)[nH]c1=O
CC50: > 826 µM

---

# System: Hepatitis B virus
# protocol_description: Antiviral activity against HBV assessed as inhibition of viral DNA replication at 10 ug/mL
# Assay type: functional
# Set-up: scale not given: the % may be the effect or the level left

compound: O=c1[nH]c(=O)n([C@H]2C[C@@H](O)[C@@H](CO)O2)cc1Cl
Activity, %: 15

compound: Cc1cn([C@@H]2O[C@H](CO)[C@H](O)[C@H]2F)c(=O)[nH]c1=O
Activity, %: 60

compound: CCc1cn([C@@H]2O[C@H](CO)C=C2F)c(=O)[nH]c1=O
Activity, %: 50

compound: Cc1cn([C@@H]2O[C@H](CO)C=C2F)c(=O)[nH]c1=O
Activity, %: 85

compound: Cc1cn([C@H]2C[C@@H](O)[C@@H](CO)O2)c(=O)[nH]c1=O
Activity, %: 50

compound: O=c1ccn([C@@H]2O[C@H](CO)[C@H](O)[C@H]2F)c(=O)[nH]1
Activity, %: 40

compound: O=c1[nH]c(=O)n([C@H]2CC(O)[C@@H](CO)O2)cc1C(F)(F)F (single isomer, unassigned)
Activity, %: 55

compound: O=c1ccn([C@@H]2O[C@H](CO)[C@@H](F)[C@@H]2O)c(=O)[nH]1
Activity, %: 15

compound: Nc1ncnc2c1ncn2[C@H]1CC(O)[C@@H](CO)O1 (single isomer, unassigned)
Activity, %: 36

---

Catalogue of compounds with associated CC50
# protocol_description: Cytotoxicity against HuH7 cells
# Assay type: cell-based, Huh-7
# measurement_context: human
measured_property: CC50

compound: O=c1[nH]c(=O)n([C@H]2CC(O)[C@@H](CO)O2)cc1C(F)(F)F (single isomer, unassigned)
measured_property: CC50
result: > 675 µM

compound: Nc1ccn([C@@H]2CS[C@H](CO)O2)c(=O)n1
measured_property: CC50
result: > 873 µM

compound: Cc1cn([C@H]2C[C@@H](O)[C@@H](CO)O2)c(=O)[nH]c1=S
measured_property: CC50
result: > 775 µM

compound: O=c1ccn([C@@H]2O[C@H](CO)[C@H](O)[C@H]2F)c(=O)[nH]1
measured_property: CC50
result: > 813 µM

compound: O=c1[nH]c(=O)n([C@H]2C[C@@H](O)[C@@H](CO)O2)cc1Br
measured_property: CC50
result: > 651 µM

compound: Cc1cn([C@@H]2O[C@H](CO)C=C2F)c(=O)[nH]c1=O
measured_property: CC50
result: > 413 µM

compound: O=c1[nH]c(=O)n([C@H]2C[C@H](O)[C@@H](CO)O2)cc1I
measured_property: CC50
result: > 282 µM

compound: O=c1[nH]c(=O)n([C@H]2CC(O)[C@@H](CO)O2)cc1F (single isomer, unassigned)
measured_property: CC50
result: > 813 µM

compound: O=c1ccn([C@H]2C[C@@H](O)[C@@H](CO)O2)c(=O)[nH]1
measured_property: CC50
result: > 877 µM

compound: CCc1cn([C@@H]2O[C@H](CO)C=C2F)c(=O)[nH]c1=O
measured_property: CC50
result: > 781 µM

compound: CCc1cn([C@H]2C[C@@H](O)[C@@H](CO)O2)c(=O)[nH]c1=O
measured_property: CC50
result: > 781 µM
